B1: TPR 5TU (parent)
chain: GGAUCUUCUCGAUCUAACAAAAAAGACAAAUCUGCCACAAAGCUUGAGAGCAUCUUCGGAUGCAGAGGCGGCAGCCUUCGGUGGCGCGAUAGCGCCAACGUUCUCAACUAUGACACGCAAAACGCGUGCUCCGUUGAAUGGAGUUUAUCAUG

variants of: B1; experiment: polymerase ribozyme fitness, log enrichment relative to wild type (log ratio); higher = more active; in vitro selection for triplet polymerase activity
Fewer inactive variants are shown than the library holds.
Here, each record is paired with measured polymerase ribozyme fitness (log ratio) data.
// print number alone

These solved cases illustrate the format of a correct answer.
C96A C118U U148C    -2.57
G58A C85G    -2.86
C54A C57G C87U A150G    -3.99
U7G G141C    -3.41
C85G C118G    -2.62
U55A C87U C93U    -4.13
A60C C85A G124C    -2.54
U104C C116G    0.144
C51A G92U    -1.06
U31C U55A A97G    1.27

Problem: Note polymerase ribozyme fitness (log ratio) for the variant shown: U90A C99U U111C
Result: -4.13

Problem: Report polymerase ribozyme fitness (log ratio), nothing else, for this variant: A52C C93G A122G
Result: -3.18

Problem: Given the variant C93G C114U , write its reported polymerase ribozyme fitness (log ratio).
Result: -3.97
